# Target desc: human PYCR1 (Homo sapiens, UniProt P32322)
# Sequence (P32322 1-300): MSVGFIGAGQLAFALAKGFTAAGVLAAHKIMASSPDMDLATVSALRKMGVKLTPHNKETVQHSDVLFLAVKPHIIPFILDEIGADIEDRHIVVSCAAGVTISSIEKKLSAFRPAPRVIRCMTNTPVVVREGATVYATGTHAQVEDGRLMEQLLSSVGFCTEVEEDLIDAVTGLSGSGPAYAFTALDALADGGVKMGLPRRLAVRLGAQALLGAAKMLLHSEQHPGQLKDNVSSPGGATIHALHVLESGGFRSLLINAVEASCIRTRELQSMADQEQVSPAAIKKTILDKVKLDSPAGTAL
# Test: biochemical
# Condition parameters: kcat for L-P5C at fixed NADH 175 μM; global fit of the data set with this analog
Measurement name: kcat
Could you give the number and then its unit, please?

Q: I have this compound here, O=C(O)[C@@H]1CSCN1 [L-T4C, L-thiazolidine-4-carboxylate] , and I need its recorded kcat.
Ans: 54 ± 2 s⁻¹

Q: # kcat lookup, item O=C(O)C1NCCS1 [L-T2C, L-thiazolidine-2-carboxylate]
Ans: 37 ± 1 s⁻¹

Others:
Q: Fill in: kcat of O=C(O)C1CCCC1 [CPC, cyclopentanecarboxylate] is ___
Ans: 35 ± 1 s⁻¹

Q: Sample O=C(O)[C@@H]1CCCO1 [THFA, (S)-(−)-tetrahydro-2-furoic acid] — what was its kcat?
Ans: 69 ± 1 s⁻¹

Q: Look at this compound and give its reported kcat. O=CN1CCC[C@H]1C(=O)O [NFLP, N-formyl L-proline]
Ans: 52 ± 2 s⁻¹
